All values here come from patent US20230017786A1.

- Experimental system: human NMDA receptor GluN1-GluN2A (Homo sapiens, UniProt Q05586+Q12879)
- Construct: expressed in transfected cells; host or cells: CHO
- Sequence (Q12879 23-1464, other chains not shown): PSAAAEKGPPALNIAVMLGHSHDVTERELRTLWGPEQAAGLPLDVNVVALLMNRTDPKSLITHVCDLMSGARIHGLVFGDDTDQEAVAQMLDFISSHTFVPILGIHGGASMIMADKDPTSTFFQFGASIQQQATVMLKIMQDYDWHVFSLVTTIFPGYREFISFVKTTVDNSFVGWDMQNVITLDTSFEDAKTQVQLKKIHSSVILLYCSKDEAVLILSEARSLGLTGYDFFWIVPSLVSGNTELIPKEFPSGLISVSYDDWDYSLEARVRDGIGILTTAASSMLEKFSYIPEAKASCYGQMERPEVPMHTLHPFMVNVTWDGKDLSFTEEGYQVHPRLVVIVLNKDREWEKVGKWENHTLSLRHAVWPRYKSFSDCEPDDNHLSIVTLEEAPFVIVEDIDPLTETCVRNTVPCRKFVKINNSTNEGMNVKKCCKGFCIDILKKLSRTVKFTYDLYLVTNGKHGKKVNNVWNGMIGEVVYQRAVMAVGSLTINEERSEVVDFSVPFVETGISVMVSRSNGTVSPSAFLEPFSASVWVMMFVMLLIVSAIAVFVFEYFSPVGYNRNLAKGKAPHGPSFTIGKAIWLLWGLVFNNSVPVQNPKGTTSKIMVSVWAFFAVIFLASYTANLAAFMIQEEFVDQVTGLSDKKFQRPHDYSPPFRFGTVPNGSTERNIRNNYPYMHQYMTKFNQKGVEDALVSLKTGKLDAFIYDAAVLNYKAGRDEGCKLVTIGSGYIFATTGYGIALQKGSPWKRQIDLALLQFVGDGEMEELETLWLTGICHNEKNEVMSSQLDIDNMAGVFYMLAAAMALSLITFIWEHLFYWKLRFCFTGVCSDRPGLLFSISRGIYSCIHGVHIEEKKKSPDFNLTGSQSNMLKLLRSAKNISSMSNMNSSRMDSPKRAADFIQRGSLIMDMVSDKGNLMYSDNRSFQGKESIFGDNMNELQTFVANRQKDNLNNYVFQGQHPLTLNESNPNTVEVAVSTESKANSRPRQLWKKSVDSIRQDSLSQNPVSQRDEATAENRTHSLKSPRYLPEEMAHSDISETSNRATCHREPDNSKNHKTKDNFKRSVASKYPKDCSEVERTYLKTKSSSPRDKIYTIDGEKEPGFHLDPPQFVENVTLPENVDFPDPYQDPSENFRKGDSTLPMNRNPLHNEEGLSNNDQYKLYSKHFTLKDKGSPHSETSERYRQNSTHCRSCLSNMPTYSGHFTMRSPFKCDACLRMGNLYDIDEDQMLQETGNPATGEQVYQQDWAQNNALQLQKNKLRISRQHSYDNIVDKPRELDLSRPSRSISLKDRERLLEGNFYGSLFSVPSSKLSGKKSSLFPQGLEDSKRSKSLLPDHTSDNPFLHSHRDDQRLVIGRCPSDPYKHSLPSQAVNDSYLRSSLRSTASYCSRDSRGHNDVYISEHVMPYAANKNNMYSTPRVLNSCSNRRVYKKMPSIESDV
- Procedure details: FLIPR calcium assay, test item effect on L-glutamate CRC, GluN1-GluN2A-CHO
- Assay type: cell-based
- Condition: with test item 195 nM
Counter-ions that a name gives are not always drawn.
Item-by-item account of L-glutamate CRC LogEC50
Format: numeric value only, no unit, no commentary.

These recorded examples may help you get a feel for the data.
                                   molecule            endpoint_name  experimental_value
0  CNC1(c2ccccc2Cl)CCCCC1=O (racemic) [(±)-Ketamine, (±)-ketamine hydrochloride]  L-glutamate CRC LogEC50                −6.5
1  CCC(=O)C(C[C@H](C)N(C)C)(c1ccccc1)c1ccccc1  L-glutamate CRC LogEC50                −6.6
2  COc1ccc2c(c1)[C@]13CCCC[C@@H]1[C@H](C2)N(C)CC3 [Dextromethorphan, hydrobromide monohydrate]  L-glutamate CRC LogEC50                −6.6

Incoming: Given the molecule CC12CC3CC(C)(C1)CC(N)(C3)C2 [Memantine, memantine hydrochloride] , what is its reported L-glutamate CRC LogEC50?
Outgoing: −6.5
